Test Target: Fibroblast growth factor 2 (Homo sapiens) (UniProt P09038)
Sequence (P09038 whole entry, looked up): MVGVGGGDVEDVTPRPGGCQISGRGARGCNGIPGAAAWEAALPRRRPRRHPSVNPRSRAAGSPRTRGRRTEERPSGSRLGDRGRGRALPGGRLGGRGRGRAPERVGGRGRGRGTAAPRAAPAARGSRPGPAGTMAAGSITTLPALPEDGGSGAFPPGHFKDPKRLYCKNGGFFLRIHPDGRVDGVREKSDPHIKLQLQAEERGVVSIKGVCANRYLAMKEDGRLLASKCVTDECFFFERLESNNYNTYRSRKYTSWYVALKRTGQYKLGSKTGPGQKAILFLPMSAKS
Experiment Summary: FGF2 binders on small-molecule microarrays, primary screen, biochemical, small-molecule microarray, 635/667 nm fluorescence (AID 1133)
Assay Context: small-molecule microarray binding, FGF2, fluorescence 635/667; higher = more signal
Parameter: composite z-score
When you answer, write just the number.

These solved cases illustrate the format of a correct answer.
C=CC[C@@]1(C(=O)O)N=C(c2ccc(OCCCO)cc2)O[C@@H]1c1ccccc1N=[N+]=[N-]; -0.168
CC(C)CNC(=O)[C@@]1(c2ccc([N+](=O)[O-])cc2)CC(=O)N(CC23CC4CC(CC(C4)C2)C3)[C@@H]1c1ccc(CO)cc1; 1.1
O=C1C2C=CC(C(O)c3ccc(F)cc3)N(Nc3ccccc3)C2C(=O)N1c1ccccc1 (centres undefined); -0.762

# evaluate next
Recorded composite z-score of CS(=O)(=O)CCOC(=O)C1=CC(c2ccc(CO)cc2)=CC(C2CC2)N(Cc2cc3c(cc2Br)OCO3)C=C1C(=O)OCCS(C)(=O)=O (centres undefined) , please.
0.763
